# method_summary: qHTS assay for small molecule agonists of the antioxidant response element (ARE) signaling pathway (AID 651741); as to activation: % of control where 0% means no effect
# measurement_setup: HepG2 ARE-bla reporter, beta-lactamase FRET ratio, 16 h; series mostly up to 96 µM
Records with an inconclusive call do not appear. Activity calls are given as the source filed them. Calls follow the shape of the dose curve; as a rule, active = well fitted activation curve with a large enough effect in the signal ratio; inconclusive = small, poorly fitted or top-dose-only effect, or effect the other way, or a change in a side signal; inactive = flat fitted curve, though single readings scatter; the % refers to the signal ratio.
Respond with a class label; see active, inactive

Look over these answered cases.
compound | cat
C=C(C)CCl | inactive
O=[N+]([O-])c1cc(Cl)c(Cl)cc1Cl | active
C=CCBr | inactive
CC(C)(C)OOC(=O)c1ccccc1 | inactive
CC[N+](=O)[O-] | inactive
Clc1ccc(Cl)c(Cl)c1 | inactive
ClCCBr | inactive
CCN(CC)N=O | inactive
CN(C)C(=O)Cl | inactive
O=S(=O)(O)F | inactive

Request: Per the assay record, what outcome was assigned to "O=[N+]([O-])c1ccc(Cl)cc1" ?
Response: inactive

###

# method_summary: Cellular Toxicity (caspase-3) BJ (AID 658);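 also: cells exposed to compound for 16 hours; 0% = DMSO basal and 100% = 10 µM staurosporine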
# measurement_setup: BJ fibroblasts, luminescence, normalized: DMSO 0%, staurosporine 100%; series mostly up to 91.7 µM
Active and inactive are the calls of the source. The call rests on the fitted dose curve; in most records, active means well fitted curve in the direction sought with a large enough effect; inconclusive means small, poorly fitted or top-dose-only effect, or another doubt; inactive means no such curve, though single readings can be large or run the other way.
readout_kind: outcome

molecule | outcome
O=[N+]([O-])c1ccccc1-c1ccccc1 | inactive
CCOP(=S)(OCC)SCCSCC | inactive
O=S(=O)(Cl)c1ccccc1 | inactive
O=[N+]([O-])c1ccccc1O | inactive
O=C(O)C(Cl)Br (stereo unspecified) | inactive
Cl/C=C/CCl | inactive
O=C(Cl)OCc1ccccc1 | inactive
CC(=O)NNc1ccccc1 | inactive
O=C(O)CBr | inactive
NNC(N)=S | inactive

Please look at the following molecule next.
Request: // returns reported outcome for input "O=C(O)c1cc(Cl)ccc1Cl"
Response: inactive

###

# method_summary: Stat Signaling Pathway (AID 446);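 also: ME-180 cervical cancer cells given 40 pM IL-6 alongside compound; SIE-controlled beta-lactamase reporter measured as 460/530 nm FRET emission ratio; % is scaled to controls: 0 for no effect and ±100 for the full control effect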
# measurement_setup: ME-180 SIE beta-lactamase reporter, IL-6 stimulated, 5 h; at 7.69 µM (top of the series) unless noted
Inconclusive results are not listed. Calls of active or inactive are those of the source. Calls come from the whole dose curve; as a rule, active = well fitted curve in either direction with a large enough effect (not every such curve was filed as active); inconclusive = small, poorly fitted or top-dose-only effect, or another doubt; inactive = flat fitted curve, though single readings scatter.
readout_kind: activity, negative = inhibition

molecule | activity, negative = inhibition
Nc1ccccc1O.O.O=C(O)[C@H]1[O][Sb][O][C@H]1C(=O)O | 8.88% (inactive)
N[C@@H](Cc1cc(Br)c(O)c(Br)c1)C(=O)O | 5.31% (inactive)
C[N+]1(C)C2CC[C@H]1CC(OC(=O)[C@@H](CO)c1ccccc1)C2 (stereo partly specified) | 7.35% (inactive)
O=C(O)c1cccc([As]=[As]c2cccc(C(=O)O)c2)c1 (stereo unspecified) | 2.08% (inactive)
O=c1[nH]cnc2[nH]cc(CN3CCCCC3)c12 | 0.346% (inactive)

Request: Value lookup for activity, negative = inhibition; key = "c1ccc(C[N+]23CN4CN(CN(C4)C2)C3)cc1"
Response: 6.74% (inactive)

Request: Next molecule: "Oc1ccc2c3c1O[C@@H]1c4[nH]c5c(c4C[C@@]4(O)[C@@H](C2)N(CC2CC2)CC[C@]314)C[C@]1(O)[C@@H]2Cc3ccc(O)c4c3[C@@]1(CCN2CC1CC1)[C@H]5O4"
Response: -12.2% [at 38 µM] (inactive)

Request: Here is the next molecule: "O=C(O)[C@H]1[C@H](C(=O)O)[C@H]2CC[C@@H]1O2"
Response: -14.7% [at 38 µM] (inactive)

Request: Moving on to "C[C@H](CC(C#N)(c1ccccc1)c1ccccc1)N1CCCCC1"
Response: 2.01% (inactive)

Request: Again, but for "O=C(NCP(=O)(O)O)c1cccnc1"
Response: 4.58% (inactive)

Request: Entry "CC1=NN(c2ccccc2)C(=O)[C@@H]1N=Nc1ccc([As](=O)(O)O)c(O)c1" please
Response: -13.3% (inactive)

Request: # repeat for "CCN=C=NCCCN(C)C"
Response: 2.84% (inactive)

Request: Okay, and "C[C@]12CC[C@H](O)C[C@@H]1CC[C@H]1[C@H]2CC[C@]2(C)[C@H](C(=O)CO)CC[C@@H]12" ?
Response: 11.8% [at 38 µM] (inactive)

###

# method_summary: Cell Viability - HUV-EC-C (AID 542);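 also: cells exposed to compound for 40 hours; % is scaled to controls: 0 for no effect and ±100 for the full control effect; nearly all actives have a fitted effect of over 35% in size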
# measurement_setup: HUV-EC-C endothelial cell viability, qHTS; series mostly up to 92.2 µM
Results filed as inconclusive are left out. The source made the active and inactive calls. The call rests on the fitted dose curve; in most records, active means well fitted cell-killing curve with a large enough effect; inconclusive means small, poorly fitted or top-dose-only effect, or effect the other way; inactive means flat fitted curve, though single readings scatter.
Thanks in advance; please answer with one of these: Yes (active), No (inactive)

Solved cases below.
compound | cat
Oc1ccc(Cl)c(Cl)c1 | No
ClP(Cl)(Cl)(Cl)Cl | No
CCCCOCC1CO1 (stereo not given) | No

Request: Record request — test call for "Nc1ccc(-c2ccccc2)cc1"
Response: No

Request: Then "O=[N+]([O-])c1ccc(Cl)c(Cl)c1Cl" ?
Response: No

###

# method_summary: AP1 Signaling Pathway (AID 357);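 also: ME-180 reporter cells stimulated with EGF at its EC50 level; % is scaled to controls: 0 for no effect and ±100 for the full control effect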
# measurement_setup: ME-180 (cervical carcinoma) AP-1-bla reporter, EGF-induced, beta-lactamase ratio, 5 h; at 7.69 µM (top of the series) unless noted
Records with an inconclusive call do not appear. Calls of active or inactive are those of the source. Calls come from the whole dose curve; as a rule, active = well fitted curve in either direction with a large enough effect (not every such curve was filed as active); inconclusive = small, poorly fitted or top-dose-only effect, or another doubt; inactive = flat fitted curve, though single readings scatter.
readout_kind: activity change, negative = inhibition

Solved cases (5 shown):
sample_smiles | activity change, negative = inhibition
CC(C)CC(=O)C[C@H](O)C(Cl)(Cl)Cl | 3.65% (inactive)
O=C(Nc1cc[c]([Sb](=[O])([OH])[OH])cc1)c1ccccc1 | -1.71% (inactive)
O=C(O)c1cc(N=Nc2ccc([As](=O)(O)O)cc2)ccc1O | 6.37% (inactive)
FC(F)(F)c1nc2ccc(SSc3ccc4nc(C(F)(F)F)[nH]c4c3)cc2[nH]1 | -1.24% (inactive)
N[C@@H](CP(=O)(O)O)C(=O)O | 0.329% (inactive)

Request: Item under review: "C[C@H](Br)CN(C[C@H](C)Br)c1ccc2c(c1)Cc1ccccc1-2" . Reported activity change, negative = inhibition?
Response: -9.29% (inactive)

Request: Now the compound "N[C@H](Cc1ccc2oc3cc(=O)c4ccccc4c-3nc2c1)C(=O)O"
Response: 25.4% (inactive)

Request: Also "CC(C)[C@@]1(NC(=O)[C@@H]2C=C3c4cccc5[nH]cc(c45)C[C@@H]3N(C)C2)O[C@]2(O)[C@H]3CCCN3C(=O)[C@H](Cc3ccccc3)N2C1=O" ?
Response: -14% [at 38 µM] (inactive)

Request: What about "C[As+](C)(c1ccc(Br)c([N+](=O)[O-])c1)c1ccc(Br)c([N+](=O)[O-])c1.O=[N+]([O-])O" ?
Response: 10.5% (inactive)

###

# method_summary: Cellular Toxicity (caspase-3) Mesangial (AID 660);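 also: combined caspase 3 and 7 activity read by Caspase-Glo luminescence; cells exposed to compound for 16 h before the caspase read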
# measurement_setup: mesangial cells, normalized: DMSO 0%, 100 µM tamoxifen 100%; series mostly up to 91.7 µM
Active and inactive are the calls of the source. Calls come from the whole dose curve; as a rule, active = well fitted activation curve with a large enough effect; inconclusive = small, poorly fitted or top-dose-only effect; inactive = flat fitted curve, though single readings scatter.
readout_kind: outcome

Field: example entries. Status: answers known.
sample_smiles | outcome
Clc1ccc(C(Cl)(Cl)Cl)c(Cl)c1 | inactive
Nc1cccc2ccccc12 | inactive
Cl/C=C/CCl | inactive
CC(C)(C)c1ccccc1O | inactive

Request: Fill blank: measured outcome of the molecule "CC(=O)[O-].CC(=O)[O-].CC(=O)[O-].[Cr+3]" is ____.
Response: inactive

Request: Also "Cc1cccc(C)c1N" , if possible.
Response: inactive

Request: Next record, please: "O=[N+]([O-])c1ccc(Cl)cc1"
Response: inactive

Request: Quick one: "O=[N+]([O-])c1cc(Cl)c(Cl)cc1Cl"
Response: inactive

###

# method_summary: qHTS assay for environmental chemicals that activate the Aryl hydrocarbon Receptor (AhR) signaling pathway (AID 651777); also: % of control where 0% means no effect; nearly all actives have a fitted effect of over 15% in size
# measurement_setup: 1A2-DRE human hepatoma cells, luciferase, 24 h; stronger effect = higher value
# Source text: National Center for Advancing Translational Sciences [NCATS] NIH Chemical Genomics Center [NCGC] U.S. Environmental Protection Agency [EPA] National Institutes of Environmental Health Sciences [NIEHS] National Toxicology Program [NTP] The Aryl hydrocarbon Receptor (AhR) plays a critical role in the development of cancer or neoplasm and its formation is most likely due to genetic mutations and the influence of environment. […]
Results filed as inconclusive are left out.
readout_kind: activation (%)
Numeric answer only, unit % assumed.

compound | activation (%)
CC[N+](=O)[O-] | -0.343

Request: # query: activation of entry "[O-][Cl+]O"
Response: 0.878

Request: And the next one, "O=C(Cl)OCc1ccccc1" ?
Response: 0.249

Request: What would you report for "COc1ccccc1N" ?
Response: -0.373

Request: Please give the result for "CCC/C=N/O" too.
Response: -0.464

###

# Tested on: PAD
# method_summary: qHTS profiling for inhibitors of Plasmodium falciparum proliferation (AID 504749); also: nearly all actives have a fitted effect of over 60% in size
# measurement_setup: P. falciparum in erythrocytes, SYBR Green DNA, 72 h; series mostly up to 28.7 µM
Results filed as inconclusive are left out. The source made the active and inactive calls. The call rests on the fitted dose curve; in most records, active means well fitted inhibition curve with a large enough effect; inconclusive means small, poorly fitted or top-dose-only effect; inactive means flat fitted curve, though single readings scatter.
# valid calls are 1 for active, 0 for inactive; nothing else

Illustrative cases are given below, each with its answer.
molecule | cat
C[C@@H](Cc1ccc(O)cc1)NC[C@@H](O)c1cc(O)cc(O)c1 | 0
C[C@@H]1O[C@@H](O[C@H]2C[C@@H](O)[C@@]3(CO)[C@H]4[C@H](O)C[C@]5(C)[C@@H](C6=CC(=O)OC6)CC[C@]5(O)[C@H]4CC[C@@]3(O)C2)[C@@H](O)[C@H](O)[C@H]1O | 0
C=C[C@@H]1CN2CC[C@H]1C[C@H]2[C@H](O)c1ccnc2ccccc12 | 1

Request: For C[N+]1([O-])[C@H]2CC[C@H]1CC(OC(=O)[C@@H](CO)c1ccccc1)C2 (some centres undefined) , what call appears in the results of this test?
Response: 0

Origin of values: PubChem BioAssay (NCATS)
